All figures here come from ChEMBL document CHEMBL1121822.

Kindly state Inhibition constant for each of the entries shown.
# system: Alcohol dehydrogenase (Equus caballus, UniProt P00327+P00328)
# measurement-notes: Inhibition constant was evaluated against horse liver alcohol dehydrogenase
One number for each entry, in mM.

Past entries and their recorded results:
COP(=O)(O)OC[C@H]1OC(n2cnc3c(N)ncnc32)[C@H](O)[C@@H]1O (stereo partly specified) :: 0.44
Nc1ncnc2c1ncn2CCS(=O)(=O)O :: 4.3
Nc1ncnc2c1ncn2[C@@H]1O[C@H](COP(=O)(O)O)[C@@H](O)[C@H]1O [ADENOSINE PHOSPHATE] :: 0.038
Nc1ncnc2c1ncn2C1O[C@H](CO)[C@H](S(=O)(=O)O)[C@H]1O (stereo partly specified) :: 1.2
Nc1ncnc2c1ncn2C1O[C@H](CS(=O)(=O)O)[C@@H](O)[C@H]1O (stereo partly specified) :: 0.18

Continue with the next molecule.
Asked: Consider the molecule Nc1ncnc2c1ncn2CCCS(=O)(=O)O and give its measured Inhibition constant.
Given back: 4.9
